- Test system: MDA-MB-435
// one of active, inactive, no free text

Some solved cases for reference:
Cn1cc(-c2ccc(-c3cncc(Cl)c3N3CCC4(CCNC4=O)CC3)cc2)cn1 = inactive
O=C(CSC(c1ccccc1)c1ccccc1)N/N=C/c1ccco1 = inactive
CC[C@@]1(O)C(=O)OCc2c1cc1n(c2=O)Cc2c-1nc1cc(F)c(C)c3c1c2[C@@H](N)CC3 = active
O=C(Nc1ccc(Cl)c(Cl)c1)Nc1ccccc1O = inactive
CC/C=C/C/C=C/C/C=C/C/C=C/C/C=C/C/C=C/CCC(=O)Nc1ccn([C@@H]2O[C@H](CO)[C@@H](O)C2(F)F)c(=O)n1 = active
O=c1oc2ccc(Br)cc2c(=O)n1-c1ccc(F)cc1F = inactive
O=C(N/N=C/c1ccc([N+](=O)[O-])o1)c1ccc(O)cc1 = inactive
CCCCCCCCCCN1CCC(N2CCCCC2)CC1 = inactive

query: Hi team, can someone confirm the assay call for N#Cc1ccc(OC(=O)Nc2ccc(Cl)c(Cl)c2)cc1 ?
result: inactive

query: Outcome? COC(=O)CCC1=C(CC(=O)OC)C(C)=N/C1=C\c1[nH]c(-c2ccc[nH]2)cc1OC
result: inactive

query: Name the outcome recorded for O=C(OCc1ccc2c(Cl)cc(Cl)c(O)c2n1)N1CCN(C(=O)c2cc3cc(F)ccc3[nH]2)CC1 in the assay.
result: active

----------
- System: OVCAR-4 ovarian
- experimental_details: NCI tumour cell line growth inhibition, 48 h
quantity_measured: log10 TGI (log10 of the value in µM)
// stored as log10 of TGI expressed in µM

CCCCC#CS(=O)(=O)C(F)(F)F = 2.00
N#Cc1ccc(OC(=O)Nc2ccc(Cl)c(Cl)c2)cc1 = 1.25

The compound identified as C=C1CC[C@@H](C(C)C)C[C@@H]2[C@H]([C@H](O)C[C@]2(C)O)[C@@]2(C)CC[C@@H]1O2 registered its log10 TGI at 1.45

Quick note, log10 TGI for COC(=O)c1cc2c(cc1CC(Cc1ccc3c(c1)CCC3)C(=O)OC)CCC2 (centres undefined) landed at 1.91

log10 TGI reading for O=C(NO)c1ccc(CN(c2cnccn2)c2cnccn2)cc1 : 1.99

----------
- System: COLO 205 colon
- experimental_details: NCI tumour cell line growth inhibition, 48 h; in the data active = GI50 below about 0.43 µM; inactive = the rest
Returns: one label drawn from 1 (active), -1 (inactive)

Examples from the recorded data:
C/C(=N\NC(=S)N1CC2CCC(CC2)C1)c1ccccn1 = 1
CCN(CC)c1cc2oc3cc(N)cc(=N)c-3nc2cc1C = -1

query: Which result was noted for this compound in the test: O=C([CH-]C(=O)c1ccccc1)c1ccccc1.O=C([CH-]C(=O)c1ccccc1)c1ccccc1.[O]=[U+2]=[O]
result: -1

query: Identify the outcome logged in this assay for the compound shown: O=C(OCc1ccc2c(Cl)cc(Cl)c(O)c2n1)N1CCN(C(=O)c2cc3cc(F)ccc3[nH]2)CC1
result: -1

query: Please indicate how the test categorized O=C1C(Cl)=C(Nc2ccccc2O)C(=O)N1Cc1ccccc1 .
result: -1

----------
- System: K-562 leukemia
- experimental_details: NCI tumour cell line growth inhibition, 48 h
Measured TGI by item

Worked examples follow.
COc1cc2c(c(O)c1O)-c1ccc(OC)c(=O)cc1C(NC(C)=O)CC2 (centres undefined) = 29.1 µM
C=C1C(=O)OC2/C=C(/C)C3(O)OC(C)(CC(OC(=O)C(C)C)C12)CC3OC(C)=O (centres undefined) = > 100 µM
C[C@]1(S(=O)(=O)c2ccccc2)C[C@H]2N(Cc3ccccc3)[C@@H]1CCC21OCCO1 = > 100 µM
COc1ccc(N=NC(=Nc2ccc(F)cc2)c2ccc(N(CCC#N)CCC#N)cc2)cc1 = > 100 µM
C[C@H]1CCC/C=C/[C@@H]2C[C@H](O)C[C@H]2[C@H](O)[C@@H](SCC(O)CO)CC(=O)O1 (some centres undefined) = > 100 µM

Entry Cc1cc(C(C)(C)C)cc(Cc2cc(C(C)(C)C)cc(Cc3cc(C(C)(C)C)cc(C)c3O)c2O)c1O , K-562 leukemia data, TGI value: 16.4 µM

The molecule Oc1ccc(Br)cc1C=Nc1ccc(N=Cc2cc(Br)ccc2O)cc1 , when measured on K-562 leukemia, yielded TGI of > 100 µM

Form: item O=C(CCCN1CCC2(CC1)C(=NC1CCCCC1)NC(=O)N2c1ccccc1)c1ccc(F)cc1 ; test system K-562 leukemia; TGI: > 100 µM

Known value: K-562 leukemia TGI of the molecule N#Cc1ccc(OC(=O)Nc2ccc(Cl)c(Cl)c2)cc1 equals > 100 µM
